Entries with reported pIC50 on DGKα (Homo sapiens (Human))
Sequence (P23743 whole entry): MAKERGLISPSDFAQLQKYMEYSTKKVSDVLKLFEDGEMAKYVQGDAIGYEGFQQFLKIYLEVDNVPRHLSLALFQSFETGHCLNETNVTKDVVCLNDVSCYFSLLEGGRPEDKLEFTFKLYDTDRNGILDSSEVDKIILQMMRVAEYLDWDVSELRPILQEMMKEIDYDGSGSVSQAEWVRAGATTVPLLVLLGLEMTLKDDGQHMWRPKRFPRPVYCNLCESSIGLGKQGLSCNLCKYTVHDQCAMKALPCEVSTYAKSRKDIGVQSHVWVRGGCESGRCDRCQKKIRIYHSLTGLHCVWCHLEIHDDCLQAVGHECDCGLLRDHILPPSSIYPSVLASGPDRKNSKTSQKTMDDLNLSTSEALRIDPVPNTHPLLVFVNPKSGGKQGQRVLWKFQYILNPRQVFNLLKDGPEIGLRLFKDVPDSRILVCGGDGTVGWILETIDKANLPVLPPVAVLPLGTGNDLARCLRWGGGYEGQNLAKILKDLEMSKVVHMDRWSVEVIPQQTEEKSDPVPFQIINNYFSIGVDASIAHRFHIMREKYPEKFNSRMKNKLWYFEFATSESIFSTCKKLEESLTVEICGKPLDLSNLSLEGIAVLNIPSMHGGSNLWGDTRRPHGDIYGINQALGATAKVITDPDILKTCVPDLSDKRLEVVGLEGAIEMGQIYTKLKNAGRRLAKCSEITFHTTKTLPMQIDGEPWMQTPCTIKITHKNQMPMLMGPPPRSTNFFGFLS
Give bare numbers, as −log10 of the molar value.

- molecule: "CC[C@H]1CN(C(C)c2ccc3cnncc3c2)[C@H](CC)CN1c1cc(=O)n(C)c2cn(CC#N)nc12 (single isomer, unassigned) [Compound A186b]"
  pIC50: 5.91
- molecule: "CC[C@H]1CN(C(C)c2ccc(CN3CCC(OC)CC3)cc2)[C@H](CC)CN1c1cc(=O)n(C)c2cn(CC#N)nc12 (single isomer, unassigned) [Compound A189a]"
  pIC50: 5.97
- molecule: "CC[C@H]1CN(C(C)c2ccc(CN3CCCC3)cc2)[C@H](CC)CN1c1cc(=O)n(C)c2cn(CC#N)nc12 (single isomer, unassigned) [Compound A26a]"
  pIC50: 5.84
- molecule: "CC[C@H]1CN(C(C)c2ccc3cnncc3c2)[C@H](CC)CN1c1cc(=O)n(C)c2cn(CC#N)nc12 (single isomer, unassigned) [Compound A186a]"
  pIC50: 7.28
- molecule: "CC#CCn1cc2c(n1)c(N1C[C@@H](CC)N(C(C)c3cnc4ccccc4n3)C[C@@H]1CC)cc(=O)n2C (single isomer, unassigned) [Compound A206b]"
  pIC50: 7.60

Hello, I would appreciate it if you could give pIC50 for each entry below.
1. CC[C@H]1CN(C(C)c2ccc3nscc3c2)[C@H](CC)CN1c1cc(=O)n(C)c2cn(CC#N)nc12 (stereo partly shown) [Compound A88]
2. CC[C@H]1CN(C(C)c2cc(F)c(C(=O)N(C)C)c(F)c2)[C@H](CC)CN1c1cc(=O)n(C)c2cn(CC#N)nc12 (single isomer, unassigned) [Compound A3a]
3. CC[C@H]1CN(C(C)c2ccc3nccn3c2)[C@H](CC)CN1c1cc(=O)n(C)c2cn(CC#N)nc12 (single isomer, unassigned) [Compound A82a]
4. CC[C@@H]1CN(c2cc(=O)n(C)c3cn(CC#N)nc23)[C@@H](C)CN1C(C)c1ccn2nc(C)cc2n1 (single isomer, unassigned) [Compound A172a]
5. CC[C@H]1CN(C(C)c2ccc3cc(C(F)F)sc3n2)[C@H](CC)CN1c1nc(=O)n(C)c2cn(CC#N)nc12 (single isomer, unassigned) [Compound A148b]

1: 7.29; 2: 4.87; 3: 6.96; 4: 6.80; 5: 7.44

Hello, I would appreciate it if you could give pIC50 for each entry below.
1. CC[C@H]1CN(C(C)c2ccc3ncsc3n2)[C@H](CC)CN1c1cc(=O)n(C)c2cn(CC#N)nc12 (single isomer, unassigned) [Compound A99a]
2. CC[C@H]1CN(C(C)c2ccn3nc(C)cc3n2)[C@H](CC)CN1c1cc(=O)n(C)c2cn(CC#N)nc12 (single isomer, unassigned) [Compound A152a]
3. CC[C@H]1CN(C(C)c2ccc(COC)nc2)[C@H](CC)CN1c1cc(=O)n(C)c2cn(CC#N)nc12 (single isomer, unassigned) [Compound A42a]
4. CC[C@@H]1CN(c2cc(=O)n(C)c3cn(CC#N)nc23)[C@@H](C)CN1C(C)c1ccc2ncsc2n1 (single isomer, unassigned) [Compound A100a]
5. CC[C@H]1CN(C(C)c2ccc3nc(C)cn3n2)[C@H](CC)CN1c1nc(=O)n(C)c2cn(CC#N)nc12 (single isomer, unassigned) [Compound A150b]

[5.76, 5.72, 5.71, 7.07, 6.91]

Hello, I would appreciate it if you could give pIC50 for each entry below.
1. CC[C@H]1CN(C(C)c2ccn3nccc3n2)[C@H](CC)CN1c1nc(=O)n(C)c2cn(CC#N)nc12 (single isomer, unassigned) [Compound A163b]
2. CC[C@H]1CN(C(C)c2ccn3ncc(C)c3n2)[C@H](CC)CN1c1cc(=O)n(C)c2cn(CC#N)nc12 (single isomer, unassigned) [Compound A151a]

[7.15, 5.14]

Hello, I would appreciate it if you could give pIC50 for each entry below.
1. CC[C@H]1CN(C(C)c2ccn3nc(C)cc3c2)[C@H](CC)CN1c1cc(=O)n(C)c2cn(CC#N)nc12 (single isomer, unassigned) [Compound A162a]
2. CC#CCn1cc2c(n1)c(N1C[C@@H](CC)N(C(C)c3ccc4nc(C)sc4c3)C[C@@H]1C)cc(=O)n2C (single isomer, unassigned) [Compound A115a]
3. CC[C@H]1CN(C(C)c2ccn3ccnc3c2)[C@H](CC)CN1c1cc(=O)n(C)c2cn(CC#N)nc12 (single isomer, unassigned) [Compound A80b]
4. CC[C@H]1CN(C(C)c2ccc3ncc(Cl)n3n2)[C@H](CC)CN1c1nc(=O)n(C)c2cn(CC#N)nc12 (single isomer, unassigned) [Compound A174b]

1: 6.98; 2: 6.57; 3: 5.52; 4: 7.28
